assay: in vitro; type: cell-based; conditions: ZIKV CC50
MEASURED_PROPERTY: CC50

Kindly give each listed record's CC50.
1. CCn1c2ccccc2c2cc(NC(=O)Nc3ccc(OC)cc3OC)ccc21
2. CCn1c2ccccc2c2cc(NC(=O)Nc3ccc(N)cc3C)ccc21
3. CCn1c2ccccc2c2cc(NC(=O)Nc3ccc([N+](=O)[O-])cc3C)ccc21
4. Cc1cc([N+](=O)[O-])ccc1NC(=O)Nc1ccc2c(c1)c1ccccc1n2CCc1ccccc1 [Compound 21b]

**A:**
["> 10 µM", "> 12.5 µM", "> 3.99 µM", "20 µM"]

* * *

As a worked illustration, we turn to IC50 data collected for hRNMT (human N7-MTase) (Homo sapiens).
Answers are plain numbers, in µM.

COMPOUND: CCn1c2ccccc2c2cc(NC(=O)Nc3ccc(OC)cc3OC)ccc21 [Compound 9c]
TEST_SYSTEM: hRNMT (human N7-MTase) (Homo sapiens)
Sequence (O43148 whole entry): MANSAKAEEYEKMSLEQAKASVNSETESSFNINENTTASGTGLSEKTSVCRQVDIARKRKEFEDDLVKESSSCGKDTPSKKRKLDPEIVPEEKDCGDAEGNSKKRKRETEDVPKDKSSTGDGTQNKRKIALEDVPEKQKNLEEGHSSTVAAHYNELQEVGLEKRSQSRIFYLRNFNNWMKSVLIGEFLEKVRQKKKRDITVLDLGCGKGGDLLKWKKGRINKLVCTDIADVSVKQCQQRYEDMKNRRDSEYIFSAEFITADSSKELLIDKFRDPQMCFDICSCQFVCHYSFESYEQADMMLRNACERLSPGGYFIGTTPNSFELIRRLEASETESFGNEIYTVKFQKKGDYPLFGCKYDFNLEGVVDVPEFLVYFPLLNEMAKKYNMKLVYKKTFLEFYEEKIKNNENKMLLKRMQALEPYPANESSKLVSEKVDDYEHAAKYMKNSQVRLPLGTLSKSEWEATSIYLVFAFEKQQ
IC50 [µM]: 27.4

# batch size: 2; output IC50 per entry
1. CCn1c2ccccc2c2cc(NC(=O)Nc3ccc(I)cc3)ccc21 [Compound 9d]
2. CCn1c2ccccc2c2cc(NC(=O)Nc3ccc([N+](=O)[O-])cc3C)ccc21 [Compound 6]

**A:**
1. 5.3
2. 13.9
